Values were extracted from ChEMBL document CHEMBL1147663.

Below, each entry is listed with its recorded Emax.
- Study target: Mu-type opioid receptor (Rattus norvegicus)
- Assay explanation: Activity against [35S]GTP-gamma-S binding to rat mu opioid receptor expressed in HN9.10 cells
- Assay type: functional, cell-based
Numeric only. Scale: %

CCCC[C@@H](NC(=O)[C@@H](N)Cc1ccc(O)cc1)C(=O)NCC(=O)N[C@H](Cc1c[nH]c2ccccc12)C(=O)N(C)[C@@H](CCCC)C(=O)N[C@@H](CC(=O)O)C(=O)N[C@@H](Cc1ccccc1)C(N)=O    47

Returns the measured Emax for the input compound. Input: `CCCC[C@@H](C(=O)N[C@@H](CC(=O)O)C(=O)N[C@@H](Cc1ccccc1)C(N)=O)N(C)C(=O)[C@H](Cc1c[nH]c2ccccc12)NC(=O)CNC(=O)[C@@H](Cc1ccccc1)NC(=O)[C@H](Cc1ccc(O)cc1)NC(=O)[C@@H](N)CC(=O)O`
91

----------
- Study target: Delta-type opioid receptor (Mus musculus, UniProt P32300)
- Sequence (P32300 whole entry): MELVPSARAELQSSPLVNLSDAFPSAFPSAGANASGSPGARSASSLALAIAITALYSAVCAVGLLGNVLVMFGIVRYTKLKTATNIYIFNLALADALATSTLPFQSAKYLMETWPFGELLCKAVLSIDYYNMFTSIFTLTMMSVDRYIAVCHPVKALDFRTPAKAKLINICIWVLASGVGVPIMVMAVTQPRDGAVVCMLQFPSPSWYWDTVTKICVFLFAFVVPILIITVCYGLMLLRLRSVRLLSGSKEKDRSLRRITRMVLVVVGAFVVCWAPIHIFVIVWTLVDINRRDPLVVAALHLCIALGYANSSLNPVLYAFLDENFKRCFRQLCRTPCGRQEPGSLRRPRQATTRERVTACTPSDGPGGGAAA
- Assay explanation: Agonist activity at delta opioid receptor assessed as inhibition of electrically stimulated ICR mouse vas deferens contraction
Where a SMILES comes first, the peptide text is derived from it. [ ]: non-standard residue; d: D form. NMeNle = CCCC[C@H](NC)C(=O)O
Quantity: IC50 (nM)
Give just the numeric value; nM need not be written.

CCCC[C@@H](NC(=O)[C@@H](N)Cc1ccc(O)cc1)C(=O)NCC(=O)N[C@@H](Cc1c[nH]c2ccccc12)C(=O)N(C)[C@@H](CCCC)C(=O)N[C@@H](CC(=O)O)C(=O)N[C@@H](Cc1ccccc1)C(N)=O    9
CCCC[C@@H](NC(=O)[C@@H](N)Cc1ccc(O)cc1)C(=O)NCC(=O)N[C@H](Cc1c[nH]c2ccccc12)C(=O)N(C)[C@@H](CCCC)C(=O)N[C@@H](CC(=O)O)C(=O)N[C@@H](Cc1ccccc1)C(N)=O    700
CCCC[C@H](NC(=O)[C@@H](Cc1c[nH]c2ccccc12)NC(=O)CNC(=O)[C@@H](C)NC(=O)[C@@H](N)Cc1ccc(O)cc1)C(=O)N[C@@H](CC(=O)O)C(=O)N[C@@H](Cc1ccccc1)C(N)=O    1300
CCCC[C@@H](C(=O)N[C@@H](CC(=O)O)C(=O)N[C@@H](Cc1ccccc1)C(N)=O)N(C)C(=O)[C@H](Cc1c[nH]c2ccccc12)NC(=O)CNC(=O)CNC(=O)[C@@H](N)Cc1ccc(O)cc1 (H-YGGW[NMeNle]DF-NH2)    220

Okay, now this compound:
Which IC50 is reported for this compound? `CCCC[C@@H](C(=O)N[C@@H](CC(=O)O)C(=O)N[C@@H](Cc1ccccc1)C(N)=O)N(C)C(=O)[C@H](Cc1c[nH]c2ccccc12)NC(=O)CNC(=O)[C@H]1CCCN1C(=O)[C@@H](N)Cc1ccc(O)cc1`
890

----------
Listed here are compounds together with their documented EC50.
- Study target: Delta-type opioid receptor (Homo sapiens)
- Sequence (P41143 whole entry): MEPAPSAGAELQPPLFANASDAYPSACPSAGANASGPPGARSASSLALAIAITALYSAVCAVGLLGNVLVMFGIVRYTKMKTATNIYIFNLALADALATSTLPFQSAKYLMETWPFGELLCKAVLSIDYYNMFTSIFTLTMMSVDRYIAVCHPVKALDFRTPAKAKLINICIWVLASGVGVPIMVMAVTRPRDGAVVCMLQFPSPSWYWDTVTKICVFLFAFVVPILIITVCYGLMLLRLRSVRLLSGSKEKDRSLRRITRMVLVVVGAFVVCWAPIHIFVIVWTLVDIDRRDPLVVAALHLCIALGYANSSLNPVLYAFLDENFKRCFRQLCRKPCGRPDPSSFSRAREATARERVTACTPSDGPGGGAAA
- Assay explanation: Activity against [35S]GTP-gamma-S binding to human delta opioid receptor expressed in HN9.10 cells
Where a SMILES comes first, the peptide text is derived from it. [ ]: non-standard residue; d: D form. NMeNle = CCCC[C@H](NC)C(=O)O
Number only, in nM; omit the unit.

CCCC[C@@H](NC(=O)[C@@H](N)Cc1ccc(O)cc1)C(=O)NCC(=O)N[C@@H](Cc1c[nH]c2ccccc12)C(=O)N(C)[C@@H](CCCC)C(=O)N[C@@H](CC(=O)O)C(=O)N[C@@H](Cc1ccccc1)C(N)=O    15
CCCC[C@@H](C(=O)N[C@@H](CC(=O)O)C(=O)N[C@@H](Cc1ccccc1)C(N)=O)N(C)C(=O)[C@@H](Cc1c[nH]c2ccccc12)NC(=O)CNC(=O)[C@@H](Cc1ccccc1)NC(=O)[C@@H](N)Cc1ccc(O)cc1    29
CCCC[C@H](NC(=O)[C@H](Cc1c[nH]c2ccccc12)NC(=O)CNC(=O)[C@@H](C)NC(=O)[C@@H](N)Cc1ccc(O)cc1)C(=O)N[C@@H](CC(=O)O)C(=O)N[C@@H](Cc1ccccc1)C(N)=O    5.9
CCCC[C@H](NC(=O)[C@@H](Cc1c[nH]c2ccccc12)NC(=O)CNC(=O)[C@@H](CCCC)NC(=O)[C@@H](N)Cc1ccc(O)cc1)C(=O)N[C@@H](CC(=O)O)C(=O)N[C@@H](Cc1ccccc1)C(N)=O    4.1
CCCC[C@@H](C(=O)N[C@@H](CC(=O)O)C(=O)N[C@@H](Cc1ccccc1)C(N)=O)N(C)C(=O)[C@H](Cc1c[nH]c2ccccc12)NC(=O)CNC(=O)CNC(=O)[C@@H](N)Cc1ccc(O)cc1 (H-YGGW[NMeNle]DF-NH2)    76

Value lookup for EC50; key = `CCCC[C@@H](C(=O)N[C@@H](CC(=O)O)C(=O)N[C@@H](Cc1ccccc1)C(N)=O)N(C)C(=O)[C@H](Cc1c[nH]c2ccccc12)NC(=O)CNC(=O)[C@@H](Cc1ccccc1)NC(=O)[C@@H](N)Cc1ccc(O)cc1`
2.5

Queued: `CCCC[C@H](NC(=O)[C@@H](Cc1c[nH]c2ccccc12)NC(=O)CNC(=O)[C@@H](C)NC(=O)[C@@H](N)Cc1ccc(O)cc1)C(=O)N[C@@H](CC(=O)O)C(=O)N[C@@H](Cc1ccccc1)C(N)=O`
130

Could you do the same for `CCCC[C@H](NC(=O)[C@H](Cc1c[nH]c2ccccc12)NC(=O)CNC(=O)[C@@H](Cc1ccccc1)NC(=O)[C@@H](N)Cc1ccc(O)cc1)C(=O)N[C@@H](CC(=O)O)C(=O)N[C@@H](Cc1ccccc1)C(N)=O` , please?
0.9
